# system tested: BRD9 (Homo sapiens)
# Sequence (Q9H8M2 whole entry): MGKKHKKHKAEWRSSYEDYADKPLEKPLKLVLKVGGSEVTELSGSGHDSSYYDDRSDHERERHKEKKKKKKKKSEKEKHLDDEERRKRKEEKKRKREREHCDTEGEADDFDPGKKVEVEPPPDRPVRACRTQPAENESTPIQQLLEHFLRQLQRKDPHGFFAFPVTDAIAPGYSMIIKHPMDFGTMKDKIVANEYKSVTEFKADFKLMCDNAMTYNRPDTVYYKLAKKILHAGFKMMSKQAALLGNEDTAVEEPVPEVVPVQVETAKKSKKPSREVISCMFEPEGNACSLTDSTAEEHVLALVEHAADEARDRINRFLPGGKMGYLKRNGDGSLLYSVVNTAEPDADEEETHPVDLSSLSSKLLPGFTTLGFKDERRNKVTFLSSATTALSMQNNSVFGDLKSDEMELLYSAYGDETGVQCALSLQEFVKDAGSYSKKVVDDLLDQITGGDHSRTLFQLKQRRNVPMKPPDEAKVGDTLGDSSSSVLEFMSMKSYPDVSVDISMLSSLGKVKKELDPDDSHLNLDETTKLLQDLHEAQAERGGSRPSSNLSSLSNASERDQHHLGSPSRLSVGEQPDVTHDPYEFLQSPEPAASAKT
# assay summary: Degradation of BRD9 (IF), immunofluorescence in MV4-11 cells, 24 hours (Assay Protocol 2)
# Format: cell-based
# Set-up: A suspension of MV4-11 cells (ATCC CRL-9591) was prepared; host or cells: MV4-11
# condition info: Assay protocol 2; BRD9 degradation; read-out: DC50
value type: DC50

Worked cases, answers included:
molecule="COc1cc(-c2cn(C)c(=O)c(C)c2C)cc(OC)c1CN(C)Cc1cccc2c1CCN(C(=O)/C(C#N)=C/C(C)(C)C)C2C(C)C (mixture of isomers)" value_type=DC50 reported="0.01 to 0.025 µM"
molecule="COc1cc(-c2cn(C)c(=O)c(C)c2C)cc(OC)c1CN1CCN(Cc2cccc3c2CCN(C(=O)/C(C#N)=C/C2(C)CCC2)C3C)CC1 (mixture of isomers)" value_type=DC50 reported="0.00125 to 0.01 µM"
molecule="COc1cc(-c2cn(C)c(=O)c(C)c2C)cc(OC)c1CN1CCC(Cc2cccc3c2CCN(C(=O)/C(C#N)=C/C(C)(C)C)C3C)CC1 (mixture of isomers)" value_type=DC50 reported="0.00125 to 0.01 µM"
molecule="COc1cc(-c2cn(C)c(=O)c(C)c2C)cc(OC)c1CN1CCC2(CCN(c3ccc4c(c3)[C@H](C)N(C(=O)/C(C#N)=C/C(C)(C)C)CC4)C2)C1 (single isomer, unassigned)" value_type=DC50 reported="0.01 to 0.025 µM"

Next up:
Respond only with DC50 recorded for COc1cc(-c2cn(C)c(=O)c(C)c2C)cc(OC)c1CN1CCCN(Cc2cccc3c2CCN(C(=O)/C(C#N)=C/C(C)(C)C)[C@@H]3C)CC1 (single isomer, unassigned) 0.00125 to 0.01 µM
